Listed here are compounds together with their documented IC50.
- ASSAY TARGET: MKNK1 (Homo sapiens, UniProt Q9BUB5, T385D)
- Construct: GST (N); purchased Carna Biosciences 02-145; host or cells: insect cells (baculovirus expression system)
- Sequence (Q9BUB5 1-424 isoform Q9BUB5-2 T344D): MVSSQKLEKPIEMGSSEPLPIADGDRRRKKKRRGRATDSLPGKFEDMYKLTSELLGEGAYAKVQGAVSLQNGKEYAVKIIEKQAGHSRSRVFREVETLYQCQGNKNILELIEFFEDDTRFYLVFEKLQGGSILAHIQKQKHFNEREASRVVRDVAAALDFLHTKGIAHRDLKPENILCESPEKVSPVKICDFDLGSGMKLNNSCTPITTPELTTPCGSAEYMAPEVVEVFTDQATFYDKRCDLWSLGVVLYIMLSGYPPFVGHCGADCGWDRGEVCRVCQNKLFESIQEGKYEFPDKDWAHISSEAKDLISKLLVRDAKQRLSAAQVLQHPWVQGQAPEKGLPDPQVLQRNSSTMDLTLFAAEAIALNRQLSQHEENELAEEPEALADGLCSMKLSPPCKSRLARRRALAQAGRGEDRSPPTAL
- EXPERIMENT: MKNK1 kinase high ATP assay (TR-FRET-based)
- Format: biochemical
- MEASUREMENT SETUP: Table 2c; 2 mM ATP, 15 min preincubation
Please reply with the bare figure in nM and do not write the unit itself.

{"STRUCTURE STRING": "CN(C)C1CCN(c2nccc3oc(-c4cnc5ccc(OC[C@H]6CCC(=O)N6)nn45)cc23)CC1", "ASSAY TARGET": "MKNK1 (Homo sapiens, UniProt Q9BUB5, T385D)", "EXPERIMENTAL READOUT": "IC50", "NUMERIC VALUE": 1.5}

Exercise: Value lookup for IC50; key = C[C@H]1CN(c2nccc3oc(-c4cnc5ccc(OC[C@H]6CCC(=O)N6)nn45)cc23)CCO1
Key: 0.5

Exercise: Value lookup for IC50; key = C[C@@H]1CN(c2nccc3oc(-c4cnc5ccc(OC[C@H]6CCC(=O)N6)nn45)cc23)C[C@H](C)O1
Key: 2
